Data provenance is patent US20160039825A1.

Let's look at some compounds and their measured IC50.
Target: Human ATX protein (Homo sapiens)
Construct: made in house
Test: Autotaxin (ATX) assay, FRET with FS-3 substrate
Format: biochemical
Conditions: upper bound bins (no greater than 100, 250 or 500 nM); FS-3 2 μM, ATX 1.0 μg/mL
READOUT_TYPE: IC50

- CCC1CN(C(=O)c2cc3n(n2)CCCN(C(=O)OCc2cc(Cl)cc(C(F)(F)F)c2)C3)CCN1 (centres unmarked): ≤ 100 nM
- O=C(O)c1cc2n(n1)CC(O)CN(C(=O)OCc1cc(C(F)(F)F)cc(C(F)(F)F)c1)C2 (centres unmarked): ≤ 500 nM
- CCOC(=O)c1cc2n(n1)CC(O)CN(C(=O)OCc1cc(C(F)(F)F)cc(C(F)(F)F)c1)C2 (centres unmarked): ≤ 100 nM
- CC1CC(Nc2cc3n(n2)CCCN(C(=O)OCc2cc(C(F)(F)F)cc(C(F)(F)F)c2)C3)CC(C)N1 (centres unmarked): ≤ 100 nM
- O=C(O)C1CN(C(=O)OCc2cc(C(F)(F)F)cc(C(F)(F)F)c2)Cc2ccnn2C1 (centres unmarked): ≤ 250 nM
- CC(C)(C)NC(=O)c1cc2n(n1)CCCN(C(=O)OCc1cc(Cl)cc(Cl)c1)C2: ≤ 250 nM
- O=C(O)C1CCN(C(=O)c2cc3n(n2)CCCN(C(=O)OCc2cc(Cl)cc(Cl)c2)C3)CC1: ≤ 100 nM
- O=C(OCc1cc(C(F)(F)F)cc(C(F)(F)F)c1)N1CCn2cc(C(F)(F)F)nc2C1: ≤ 100 nM

---

Target: Human ATX protein (Homo sapiens)
Construct: made in house
Test: Autotaxin (ATX) assay, FRET with FS-3 substrate
Type: biochemical
Conditions: upper bound bins (no greater than 100, 250 or 500 nM); FS-3 2 μM, ATX 1.0 μg/mL
READOUT_TYPE: IC50

• COCc1cc2n(n1)CCCN(C(=O)OCc1cc(C(F)(F)F)cc(C(F)(F)F)c1)C2 [Example 285] = ≤ 100 nM
• CC(C)(C)OC(=O)N1CC=C(c2cc3n(n2)CCN(C(=O)OCc2cc(C(F)(F)F)cc(C(F)(F)F)c2)C3)CC1 [Example 497] = ≤ 100 nM
• CC1(C)CN(C(=O)c2cc3n(n2)CCCN(C(=O)OCc2cc(Cl)cc(C(F)(F)F)c2)C3)CCN1 [Example 200] = ≤ 100 nM
• CC(C)(C)OC(=O)N1CCN(C(=O)c2cc3n(n2)CCN(C(=O)OCc2cc(C(F)(F)F)cc(C(F)(F)F)c2)C3)C(C)(C)C1 [Example 462] = ≤ 100 nM
• CC(Nc1cc2n(n1)CCCN(C(=O)OCc1cc(C(F)(F)F)cc(C(F)(F)F)c1)C2)C(=O)O (stereo not shown) [Example 361] = ≤ 250 nM
• N#CC1CN(C(=O)c2cc3n(n2)CCCN(C(=O)OCc2cc(C(F)(F)F)cc(C(F)(F)F)c2)C3)CCN1 (stereo not shown) [Example 246] = ≤ 100 nM
• O=C(O)c1cc2n(n1)CCCN(C(=O)OCc1cc(F)cc(Cl)c1)C2 [Example 68] = ≤ 500 nM

---

Biological target: Human ATX protein (Homo sapiens, UniProt Q13822)
Construct: made in house
Assay: Autotaxin (ATX) assay, FRET with FS-3 substrate
Type: biochemical
Conditions: upper bound bins (no greater than 100, 250 or 500 nM); FS-3 2 μM, ATX 1.0 μg/mL
Text: ATX (Autotaxin) is a 125 KDa glycoprotein with lysophospholipase D (LPLD) activity that generates the bioactive lipid lysophosphatidic acid (LPA) from lysophosphatidylcholine (LPC). The ATX biochemical assay utilizes a FRET (fluorescence resonance energy transfer) technology platform. […] The reaction is monitored by a SpectraMax M5 (Molecular Devices, Sunnyvale, Calif.) with at excitation wavelength 485 nm and emission wavelength […]. […]
pIC50: −log10 of the molar value.
Let's look at some molecules and their measured pIC50.
READOUT_TYPE: pIC50

- CC1CN(C(=O)c2cc3n(n2)CCN(C(=O)OCc2cc(C(F)(F)F)cc(C(F)(F)F)c2)C3)CC(C)N1 (stereo not drawn) [Example 433]: ≥ 7.00
- CON(C)C(=O)c1cc2n(n1)CCN(C(=O)OCc1cc(C(F)(F)F)cc(C(F)(F)F)c1)C2 [Example 400]: ≥ 7.00
- N#Cc1cc2n(n1)CCCN(C(=O)OCc1cc(C(F)(F)F)cc(C(F)(F)F)c1)C2 [Example 125]: ≥ 7.00
- CC1C=C(c2cc3n(n2)CCCN(C(=O)OCc2cc(C(F)(F)F)cc(C(F)(F)F)c2)C3)CC(C)N1 (stereo not drawn) [Example 378]: ≥ 7.00
- O=C(OCc1cc(Cl)cc(C(F)(F)F)c1)N1CCCn2nc(C3CN4CCC[C@H]4CO3)cc2C1 (mixture of isomers) [Example 251]: ≥ 7.00
- CC1COCC(C)N1CC(=O)c1cc2n(n1)CCCN(C(=O)OCc1cc(Cl)cc(C(F)(F)F)c1)C2 (stereo not drawn) [Example 261]: ≥ 7.00
- O=C(OCc1cc(Cl)cc(C(F)(F)F)c1)N1CCCn2nc(C(=O)N3CCC4(CCNCC4)C3)cc2C1 [Example 169]: ≥ 7.00
- O=C(OCc1cc(C(F)(F)F)cc(C(F)(F)F)c1)N1CCCn2nc(N3CCC4NCCC43)cc2C1 (stereo not drawn) [Example 359]: ≥ 7.00
- O=C(NC1=NCCS1)c1cc2n(n1)CCCN(C(=O)OCc1cc(C(F)(F)F)cc(C(F)(F)F)c1)C2 [Example 173]: ≥ 7.00
- O=C(OCc1cc(C(F)(F)F)cc(C(F)(F)F)c1)N1CCn2nc(C3=CCCNC3)cc2C1 [Example 444]: ≥ 7.00
- O=C(NC1COC1)c1cc2n(n1)CCCN(C(=O)OCc1cc(C(F)(F)F)cc(C(F)(F)F)c1)C2 [Example 505]: ≥ 7.00
- O=C(OCc1cc(C(F)(F)F)cc(C(F)(F)F)c1)N1CCCn2nc(NC3CC4CCCC(C3)N4)cc2C1 (stereo not drawn) [Example 316]: ≥ 7.00
- O=C(OCc1cc(C(F)(F)F)cc(C(F)(F)F)c1)N1CCCn2nc(C(=O)N3CCOCC3)cc2C1 [Example 30]: ≥ 7.00
- O=C(CN1CCCC1)c1cc2n(n1)CCCN(C(=O)OCc1cc(Cl)cc(C(F)(F)F)c1)C2 [Example 273]: ≥ 7.00
- O=C(O)c1nn2c(c1Br)CN(C(=O)OCc1cc(C(F)(F)F)cc(C(F)(F)F)c1)CCC2 [Example 115]: ≥ 7.00
